Data provenance is patent US7074789B2.

Here we list molecules with their recorded IC50 when tested on Src (Homo sapiens, UniProt P12931).
Sequence (P12931 whole entry, species assumed): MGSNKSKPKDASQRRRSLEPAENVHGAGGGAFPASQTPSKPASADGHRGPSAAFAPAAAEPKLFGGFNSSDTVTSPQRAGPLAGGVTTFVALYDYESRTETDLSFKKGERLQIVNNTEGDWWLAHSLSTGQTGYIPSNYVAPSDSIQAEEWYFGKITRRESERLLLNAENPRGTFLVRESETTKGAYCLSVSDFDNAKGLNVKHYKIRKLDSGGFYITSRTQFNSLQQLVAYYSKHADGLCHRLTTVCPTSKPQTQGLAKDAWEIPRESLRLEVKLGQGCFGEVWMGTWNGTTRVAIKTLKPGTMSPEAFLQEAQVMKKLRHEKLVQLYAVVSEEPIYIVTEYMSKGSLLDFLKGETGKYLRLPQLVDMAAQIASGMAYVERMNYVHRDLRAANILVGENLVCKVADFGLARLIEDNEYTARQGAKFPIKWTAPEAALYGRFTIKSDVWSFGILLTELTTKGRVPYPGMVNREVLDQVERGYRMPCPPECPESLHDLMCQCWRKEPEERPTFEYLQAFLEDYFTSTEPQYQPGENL

Some solved cases for reference:
1. COc1cc(Nc2ncnc(N3CCCc4cc(C)ccc43)n2)cc(OC)c1OC [Compound 498]
< 0.982 µM
2. COc1cc(Nc2ncnc(Nc3cccc(O)c3)n2)cc(OC)c1OC [Compound 78]
< 1.08 µM
3. COc1cc(Nc2ncnc(Nc3cc(C)c(O)cc3C)n2)cc(OC)c1OC [Compound 94]
1.01 to 6.04 µM
4. CCN(CC)CCOc1ccc(Nc2ncnc(-n3c(N)nc4ccccc43)n2)cc1OC [Compound 652]
0.892 to 5.35 µM
5. COc1cc(Nc2ncnc(-n3c(NC(C)c4ccc(F)cc4)nc4ccccc43)n2)cc(OC)c1OC (stereo not shown) [Compound 605]
> 8.73 µM
6. COc1cc(Nc2ncnc(-n3ccc4cc(F)ccc43)n2)cc(OC)c1OC [Compound 441]
> 11.4 µM
7. COc1cc(Nc2ncnc(Nc3ccc(OCc4ccccc4)cc3)n2)cc(OC)c1OC [Compound 926]
0.871 to 5.22 µM
8. COc1cc(Nc2ncnc(Nc3cc(C(C)(C)C)[nH]n3)n2)cc(OC)c1OC [Compound 313]
< 1 µM

-- ask Write IC50 of COc1cc(Nc2ncnc(-n3c(Nc4ccccc4C)nc4ccccc43)n2)cc(OC)c1OC [Compound 384] ; system used: Src (Homo sapiens, UniProt P12931)
-- reply > 9.31 µM

-- ask Lab note: record IC50 of COc1cc(Nc2ncnc(-n3c(Nc4cccc(C)c4)nc4ccccc43)n2)cc(OC)c1OC [Compound 386] tested on Src (Homo sapiens, UniProt P12931).
-- reply > 9.31 µM

-- ask Consider the molecule C#Cc1cccc(Nc2ncnc(Nc3cc(OC)c(OC)c(OC)c3)n2)c1 [Compound 74] tested on Src (Homo sapiens, UniProt P12931); state its IC50.
-- reply 1.06 to 6.36 µM

-- ask Fill in IC50 for COc1cc(Nc2ncnc(-c3c(O)[nH]c4ccc(Cl)cc34)n2)cc(OC)c1OC [Compound 517] tested with Src (Homo sapiens, UniProt P12931).
-- reply > 10.5 µM

-- ask Report the value of IC50 obtained on Src (Homo sapiens, UniProt P12931) for COc1cccc(Nc2ncnc(Nc3cc(OC)c(OC)c(OC)c3)n2)c1 [Compound 87] .
-- reply 1.04 to 6.26 µM

-- ask Report measured IC50 on Src (Homo sapiens, UniProt P12931); entry: COc1cc(Nc2ncnc(Nc3ccc(Oc4ccccc4)cc3)n2)cc(OC)c1OC [Compound 29]
-- reply < 0.898 µM

###

Known pIC50 of a selection of compounds
System Name: Zap-70 (Homo sapiens)
Construct: Kinases are expressed as either kinase domains or full length constructs; made in house
Sequence (P43403 whole entry, species assumed, the tested form may be a part): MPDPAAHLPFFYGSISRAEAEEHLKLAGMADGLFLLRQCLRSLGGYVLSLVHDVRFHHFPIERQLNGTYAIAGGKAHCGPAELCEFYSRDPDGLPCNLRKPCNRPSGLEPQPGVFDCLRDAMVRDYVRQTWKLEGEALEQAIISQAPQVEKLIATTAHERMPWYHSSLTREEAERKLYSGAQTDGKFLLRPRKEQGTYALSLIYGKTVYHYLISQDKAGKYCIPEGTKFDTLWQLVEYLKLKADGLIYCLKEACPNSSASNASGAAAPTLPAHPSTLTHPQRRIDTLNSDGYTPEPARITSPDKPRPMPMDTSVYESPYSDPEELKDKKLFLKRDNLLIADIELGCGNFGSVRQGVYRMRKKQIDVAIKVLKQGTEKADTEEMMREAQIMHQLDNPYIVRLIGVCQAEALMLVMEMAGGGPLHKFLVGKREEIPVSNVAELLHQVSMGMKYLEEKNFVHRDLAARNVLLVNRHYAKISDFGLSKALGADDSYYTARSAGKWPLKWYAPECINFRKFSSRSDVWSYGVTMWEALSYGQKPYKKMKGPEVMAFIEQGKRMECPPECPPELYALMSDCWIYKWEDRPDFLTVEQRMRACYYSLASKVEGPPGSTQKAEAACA
Procedure Summary: Kinase inhibition assay (33P transfer), Zap-70
Format: biochemical
Protocol Conditions: read-out: Zap-1
pIC50: −log10 of the molar value.

Below are worked cases with known answers.
1) Nc1nc2ccccc2n1-c1ncnc(Nc2ccccc2)n1
< 4.83
2) COc1ccc(CNc2nc3ccccc3n2-c2ncnc(Nc3cccc(Cc4nnn[nH]4)c3)n2)cc1
5.32 to 6.10
3) COc1cc(Nc2ncnc(Nc3cc(OC)c(OCCN4CCOCC4)c(OC)c3)n2)cc(OC)c1OC
< 5.08

-- ask Dear colleague, please send me the reported pIC50 for `COc1ccc(Nc2ncnc(Nc3cc(OC)c(OC)c(OC)c3)n2)cc1OCCN1CCOCC1` when you can.
-- reply < 5.06

-- ask Please report pIC50 for the following compound: `Cc1ccc2c(c1)CCCN2c1ncnc(Nc2cccc(Cl)c2C)n1`
-- reply < 4.91

-- ask Quote pIC50 reported for `CC(C)(C)c1cc(Nc2ncnc(Nc3ccc(CO)cc3)n2)[nH]n1` please.
-- reply < 4.88

-- ask Provide pIC50 value for the following compound: `CN(c1cccc(Cl)c1)c1ncnc(Nc2ccc(F)c(C(F)(F)F)c2)n1`
-- reply < 4.95

-- ask Supply pIC50 value. Item: `COc1cc(Nc2ncnc(Nc3ccc(NS(=O)(=O)c4ccc([N+](=O)[O-])cc4)cc3)n2)cc(OC)c1OC`
-- reply 5.36 to 6.14
